targetSystem: human ether-à-go-go-related gene (hERG) potassium channel (human, UniProt Q12809);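 further: peak tail current of the secondary pulse compared with the same well before compound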
Sequence (Q12809 whole entry, looked up): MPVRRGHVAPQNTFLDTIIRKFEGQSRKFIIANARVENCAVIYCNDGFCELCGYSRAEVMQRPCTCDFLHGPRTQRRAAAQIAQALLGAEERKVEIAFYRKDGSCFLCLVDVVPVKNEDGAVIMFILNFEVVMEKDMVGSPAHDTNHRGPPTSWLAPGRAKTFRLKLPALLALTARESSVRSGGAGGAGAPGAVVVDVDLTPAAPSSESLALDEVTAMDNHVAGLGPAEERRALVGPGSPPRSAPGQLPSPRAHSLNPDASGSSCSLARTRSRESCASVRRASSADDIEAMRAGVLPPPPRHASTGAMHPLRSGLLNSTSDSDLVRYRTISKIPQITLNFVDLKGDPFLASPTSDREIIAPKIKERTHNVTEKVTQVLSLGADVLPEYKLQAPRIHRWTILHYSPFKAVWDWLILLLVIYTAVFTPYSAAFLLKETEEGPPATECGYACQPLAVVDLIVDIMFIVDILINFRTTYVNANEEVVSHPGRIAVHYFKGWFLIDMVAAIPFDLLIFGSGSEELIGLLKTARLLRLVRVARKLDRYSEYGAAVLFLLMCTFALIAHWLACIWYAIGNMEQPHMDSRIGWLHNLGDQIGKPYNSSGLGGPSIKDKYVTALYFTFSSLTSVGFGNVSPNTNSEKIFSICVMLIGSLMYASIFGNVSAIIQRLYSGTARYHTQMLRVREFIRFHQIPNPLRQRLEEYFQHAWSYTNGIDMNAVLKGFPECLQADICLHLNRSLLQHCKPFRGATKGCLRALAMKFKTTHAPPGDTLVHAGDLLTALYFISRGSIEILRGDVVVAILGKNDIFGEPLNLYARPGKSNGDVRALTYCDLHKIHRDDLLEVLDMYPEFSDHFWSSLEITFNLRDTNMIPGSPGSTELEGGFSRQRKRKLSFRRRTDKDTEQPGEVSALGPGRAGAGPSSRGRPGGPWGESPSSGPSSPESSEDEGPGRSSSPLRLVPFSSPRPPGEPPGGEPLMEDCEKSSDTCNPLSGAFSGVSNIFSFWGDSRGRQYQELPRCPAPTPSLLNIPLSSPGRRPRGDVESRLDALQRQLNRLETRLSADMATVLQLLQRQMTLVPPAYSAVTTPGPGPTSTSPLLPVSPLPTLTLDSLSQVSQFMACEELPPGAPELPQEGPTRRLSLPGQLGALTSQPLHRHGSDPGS
method: primary screen, population patch clamp on CHO cells stably expressing hERG; higher = less effect of the substance
Out of some 310,000 compounds screened, about 14,000 (4.5%) showed an effect of 50% or more. Effects have a minus sign here. The sample as a whole holds a higher share of strong results than the screen did.
hERG current change (%, negative = inhibition) at 10uM listing for selected compounds.
assayEndpoint: hERG current change (%, negative = inhibition) at 10uM (%)

compound	targetSystem	outputUnit	measuredResult
COCCn1cnc2c(c1=O)c1nc3ccccc3nc1n2/N=C/c1ccco1	human ether-à-go-go-related gene (hERG) potassium channel (human, UniProt Q12809)	%	-7.29
CCN(CC)CCCN(C(=O)c1ccc(F)cc1)c1nc(-c2ccc(OC)cc2)cs1	human ether-à-go-go-related gene (hERG) potassium channel (human, UniProt Q12809)	%	-75.1
COc1ccc(-n2c(-c3ccccc3)c[n+]3c2CCC3)cc1.[Br-]	human ether-à-go-go-related gene (hERG) potassium channel (human, UniProt Q12809)	%	-20.5
COCCCN(C(=O)c1ccccc1)c1nc(-c2ccc(OC)cc2)cs1	human ether-à-go-go-related gene (hERG) potassium channel (human, UniProt Q12809)	%	18.3
Cc1ccc(S(=O)(=O)N2CCOCC2)cc1C(=O)N(Cc1nnc(-c2ccccc2Cl)o1)C1CC1	human ether-à-go-go-related gene (hERG) potassium channel (human, UniProt Q12809)	%	-33.9
Cc1ccc(N(C(=O)c2snc(C(N)=O)c2N)C(C(=O)NCC2CCCO2)c2c[nH]c3ccccc23)cc1 (centres unmarked)	human ether-à-go-go-related gene (hERG) potassium channel (human, UniProt Q12809)	%	-6.36
CCN(CC)CCCN(C(=O)c1ccc(OC)cc1)c1nc(-c2ccc(OC)cc2)cs1	human ether-à-go-go-related gene (hERG) potassium channel (human, UniProt Q12809)	%	-73.7
O=C(c1ccc(Cl)c(S(=O)(=O)N2CCOCC2)c1)N(Cc1nnc(-c2ccccc2Cl)o1)C1CC1	human ether-à-go-go-related gene (hERG) potassium channel (human, UniProt Q12809)	%	-58.9
COc1ccc2c(c1)CC/C(=C\c1ccc(C)o1)C2=O	human ether-à-go-go-related gene (hERG) potassium channel (human, UniProt Q12809)	%	8.29
CCCN(Cc1nnc(-c2ccccc2Cl)o1)C(=O)c1cc([N+](=O)[O-])cc([N+](=O)[O-])c1	human ether-à-go-go-related gene (hERG) potassium channel (human, UniProt Q12809)	%	-55.1
CCCN(Cc1nnc(-c2ccccc2Cl)o1)C(=O)c1cc(S(=O)(=O)N2CCOCC2)ccc1F	human ether-à-go-go-related gene (hERG) potassium channel (human, UniProt Q12809)	%	-47.7
COc1ccc(-c2c[n+]3c(n2-c2ccc(C)cc2)CCCCC3)cc1.[Br-]	human ether-à-go-go-related gene (hERG) potassium channel (human, UniProt Q12809)	%	-48.2
CCCN(Cc1nnc(-c2ccccc2Cl)o1)C(=O)c1ccc(C)c(S(=O)(=O)N2CCOCC2)c1	human ether-à-go-go-related gene (hERG) potassium channel (human, UniProt Q12809)	%	-55.8
COCCN(C(=O)c1ccccc1)c1nc(-c2ccc(OC)cc2)cs1	human ether-à-go-go-related gene (hERG) potassium channel (human, UniProt Q12809)	%	28.5
CCN(CC)CCCN(C(=O)c1cccc(C)c1)c1nc(-c2ccc(OC)cc2)cs1	human ether-à-go-go-related gene (hERG) potassium channel (human, UniProt Q12809)	%	-78.2
COc1ccc(-c2c[n+]3c(n2-c2c(C)n(C)n(-c4ccccc4)c2=O)CCCCC3)cc1.[Br-]	human ether-à-go-go-related gene (hERG) potassium channel (human, UniProt Q12809)	%	4.43
COc1ccc(-c2csc(N(CCCN(C)C)C(=O)c3ccc(Br)cc3)n2)cc1.O=C(O)C(=O)O	human ether-à-go-go-related gene (hERG) potassium channel (human, UniProt Q12809)	%	-44
O=C(c1cc([N+](=O)[O-])cc([N+](=O)[O-])c1)N(Cc1nnc(-c2ccccc2Cl)o1)C1CC1	human ether-à-go-go-related gene (hERG) potassium channel (human, UniProt Q12809)	%	-36.8
CSc1nsc(SC)c1NC(=O)N1CCCCC1	human ether-à-go-go-related gene (hERG) potassium channel (human, UniProt Q12809)	%	2.74
COc1ccc(-n2c(-c3ccc(Br)cc3)c[n+]3c2CCC3)cc1.[Br-]	human ether-à-go-go-related gene (hERG) potassium channel (human, UniProt Q12809)	%	-56
COc1ccc(-n2c(-c3ccc(Br)cc3)c[n+]3c2CCCCC3)cc1.[Br-]	human ether-à-go-go-related gene (hERG) potassium channel (human, UniProt Q12809)	%	-80.3
Cc1ccc(NC(=O)C(=O)NCc2ccc(/C=N/NC(=O)c3c(C)nc4cc(C)ccn34)o2)cc1	human ether-à-go-go-related gene (hERG) potassium channel (human, UniProt Q12809)	%	-64
COc1ccc(-n2c(-c3ccc(Br)cc3)c[n+]3c2SC(C)C3)cc1.[Br-] (centres unmarked)	human ether-à-go-go-related gene (hERG) potassium channel (human, UniProt Q12809)	%	-72.6
CCC(=O)N(CC)c1nc(-c2ccc(OC)cc2)cs1	human ether-à-go-go-related gene (hERG) potassium channel (human, UniProt Q12809)	%	-5.81
Cc1nc2ccccn2c1C(=O)N/N=C/c1ccccc1[N+](=O)[O-]	human ether-à-go-go-related gene (hERG) potassium channel (human, UniProt Q12809)	%	2.26
Cc1ccn2c(C(=O)N/N=C\c3cccs3)c(C)nc2c1	human ether-à-go-go-related gene (hERG) potassium channel (human, UniProt Q12809)	%	-7.56
Cc1cccc(N2CCN(C(=O)c3ccc4nc(-c5ccco5)c(-c5ccco5)nc4c3)CC2C)c1 (centres unmarked)	human ether-à-go-go-related gene (hERG) potassium channel (human, UniProt Q12809)	%	2.44
Cc1ccn2c(C(=O)N/N=C/c3ccc(CNC(=O)C(=O)Nc4ccc(C)c(C)c4)o3)c(C)nc2c1	human ether-à-go-go-related gene (hERG) potassium channel (human, UniProt Q12809)	%	-57
Cc1nc2ccccn2c1C(=O)N/N=C/c1ccccc1	human ether-à-go-go-related gene (hERG) potassium channel (human, UniProt Q12809)	%	11.6
